Assay: Metabolic stability in dog liver microsomes
Format: ADME, Canis lupus familiaris, Microsome
List of CLhep predicted values.
The figure you give is taken to be in mL/min/kg; do not add the unit.

Some solved cases for reference:
C[C@@H]1CN(Cc2ccc(F)cc2)CCN1C(=O)COc1ccc(Cl)cc1NC(N)=O [BX 471 FREE BASE] :: 28
C[C@@H]1CN(Cc2ccc(F)cc2)[C@@H](C)CN1C(=O)COc1ccc(Cl)cc1C(=O)CCC(=O)O :: 11
C[C@@H]1CN(Cc2ccc(F)cc2)CCN1C(=O)COc1ccc(Cl)cc1 :: 27
C[C@@H]1CN(Cc2ccc(F)cc2)[C@@H](C)CN1C(=O)COc1ccc(Cl)cc1CS(=O)(=O)O :: 11
C[C@@H]1CN(Cc2ccc(F)cc2)[C@@H](C)CN1C(=O)COc1ccc(Cl)cc1C(=O)NCCN :: 25

Task: Would you kindly share the measured CLhep predicted for "C[C@@H]1CN(Cc2ccc(F)cc2)[C@@H](C)CN1C(=O)COc1ccc(Cl)cc1CC(=O)O" ?
Result: 11

Task: Would you kindly share the measured CLhep predicted for "C[C@@H]1CN(Cc2ccc(F)cc2)[C@@H](C)CN1C(=O)COc1ccc(Cl)cc1C(=O)O" ?
Result: 11

Task: Would you kindly share the measured CLhep predicted for "C[C@@H]1CN(Cc2ccc(F)cc2)[C@@H](C)CN1C(=O)COc1ccc(Cl)cc1NC(=O)NCCN" ?
Result: 11
